- Method summary: Cell Viability - LYMP2-005 (AID 967);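 also: cells exposed to compound for 24 h at 37 °C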
- Run parameters: LYMP2-005 lymphoblastoid cell viability; series mostly up to 92.2 µM
Results filed as inconclusive are left out. The source made the active and inactive calls. Calls follow the shape of the dose curve; as a rule, active = well fitted cell-killing curve with a large enough effect; inconclusive = small, poorly fitted or top-dose-only effect, or effect the other way; inactive = no such curve, though single readings can be large or run the other way.
Outcome codes: active, inactive

Compound: O=c1[nH]ncc2ccccc12
Class label: inactive

Compound: CC/C=C/C/C=C/C/C=C/CCCCCCCC(=O)OCC
Class label: active

Compound: CC(C)S
Class label: inactive

Compound: Nc1ccc(N=Nc2ccccc2)c(N)c1
Class label: inactive

Compound: Clc1nc2ccccc2nc1Cl
Class label: inactive

Compound: CC(CCC(=O)O)(c1ccc(O)cc1)c1ccc(O)cc1
Class label: inactive

Compound: Cc1cc2nc(N)sc2cc1C
Class label: inactive

Compound: Cc1c(N)cccc1Cl
Class label: inactive

Compound: CCCCCCCCC1CO1 (stereo not given)
Class label: inactive

Compound: c1ccc2ncccc2c1
Class label: inactive

Compound: CCC(Cl)CC(Cl)C(Cl)C(Cl)C(Cl)C(C)Cl (stereo not given)
Class label: inactive

Compound: CCCCCCN
Class label: inactive

Compound: O=C(O)c1ccc([N+](=O)[O-])cc1
Class label: inactive

Compound: COc1ccc(C(=O)Nc2ccccc2)cc1[N+](=O)[O-]
Class label: inactive

Compound: C=CC1CO1 (stereo not given)
Class label: inactive

Compound: CC(=O)c1ccc(Cl)c(Cl)c1Cl
Class label: inactive

Compound: C/C=C1/C(=O)C[C@H]2[C@@H]3CCC4=CC(=O)CC[C@]4(C)[C@H]3CC[C@]12C
Class label: inactive

Compound: c1ccncc1
Class label: inactive

Compound: Nc1cnn([C@@H]2O[C@H](CO)[C@@H](O)[C@H]2O)c(=O)n1
Class label: inactive

Compound: CC1=C(/C=C/C(C)=C/C=C/C(C)=C/C=O)C(C)(C)CCC1
Class label: active

Compound: Cc1ccc(N)cc1[N+](=O)[O-]
Class label: inactive

Compound: CN(C)c1ccc(Cc2ccc(N(C)C)cc2)cc1
Class label: inactive

Compound: NC(=O)Nc1nc2ccccc2[nH]1
Class label: inactive

Compound: c1ccc(COCc2ccccc2)cc1
Class label: inactive

Compound: O=[N+]([O-])c1cc(N(CCO)CCO)ccc1NCCO
Class label: inactive

Compound: CCCCC(CC)COP(=O)(OCC(CC)CCCC)OCC(CC)CCCC (stereo not given)
Class label: inactive

Compound: CC(=O)OC1CC(C)OC(C)O1 (stereo not given)
Class label: inactive

Compound: CCOc1ccc2nc(N)sc2c1
Class label: inactive

Compound: C1CCCNCC1
Class label: inactive

Compound: O=C(OCc1ccccc1)c1ccccc1O
Class label: inactive

Compound: C=CC(=O)CC
Class label: inactive

Compound: Cc1cccnc1
Class label: inactive

Compound: CC(=O)CC(=O)Nc1ccccc1
Class label: inactive

Compound: O=[N+]([O-])c1cc(Cl)c(Cl)c(Cl)c1Cl
Class label: inactive

Compound: Brc1cc(Br)c(Oc2cc(Br)c(Br)cc2Br)cc1Br
Class label: inactive

Compound: C=C1CC[C@H](O)C/C1=C/C=C1\CCC[C@]2(C)[C@@H]([C@H](C)CCCC(C)C)CC[C@@H]12
Class label: active

Compound: O=C(O)c1cc(N=Nc2ccc([N+](=O)[O-])cc2)ccc1O
Class label: inactive

Compound: CN(C)c1ccc(C(=N)c2ccc(N(C)C)cc2)cc1
Class label: inactive

Compound: CC(C)OCC1CO1 (stereo not given)
Class label: inactive

Compound: CC(=O)OC(C(=O)c1ccccc1)c1ccccc1 (stereo not given)
Class label: inactive

Compound: Brc1ccc(-c2ccccc2)cc1
Class label: inactive

Compound: C=C(C#N)C(=O)OCC
Class label: inactive

Compound: Cc1ccccc1OCC1CO1 (stereo not given)
Class label: inactive

Compound: C=Cc1cccc(C)c1
Class label: inactive

Compound: CCc1ccc(C(c2ccc(CC)cc2)C(Cl)Cl)cc1
Class label: inactive

Compound: c1c[nH]cn1
Class label: inactive

Compound: S=C(NC1CCCCC1)NC1CCCCC1
Class label: inactive

Compound: Cc1cc(=O)oc2cc(O)cc(O)c12
Class label: inactive

Compound: CCCCCCc1ccc(-c2ccc(C#N)cc2)cc1
Class label: inactive

Compound: O=C(O)/C=C/c1ccc(/C=C/C(=O)O)cc1
Class label: inactive

---

Entries and their Potency values follow.
- Study target: Glucocorticoid receptor (Homo sapiens) (UniProt P04150)
- Sequence (P04150 whole entry, looked up): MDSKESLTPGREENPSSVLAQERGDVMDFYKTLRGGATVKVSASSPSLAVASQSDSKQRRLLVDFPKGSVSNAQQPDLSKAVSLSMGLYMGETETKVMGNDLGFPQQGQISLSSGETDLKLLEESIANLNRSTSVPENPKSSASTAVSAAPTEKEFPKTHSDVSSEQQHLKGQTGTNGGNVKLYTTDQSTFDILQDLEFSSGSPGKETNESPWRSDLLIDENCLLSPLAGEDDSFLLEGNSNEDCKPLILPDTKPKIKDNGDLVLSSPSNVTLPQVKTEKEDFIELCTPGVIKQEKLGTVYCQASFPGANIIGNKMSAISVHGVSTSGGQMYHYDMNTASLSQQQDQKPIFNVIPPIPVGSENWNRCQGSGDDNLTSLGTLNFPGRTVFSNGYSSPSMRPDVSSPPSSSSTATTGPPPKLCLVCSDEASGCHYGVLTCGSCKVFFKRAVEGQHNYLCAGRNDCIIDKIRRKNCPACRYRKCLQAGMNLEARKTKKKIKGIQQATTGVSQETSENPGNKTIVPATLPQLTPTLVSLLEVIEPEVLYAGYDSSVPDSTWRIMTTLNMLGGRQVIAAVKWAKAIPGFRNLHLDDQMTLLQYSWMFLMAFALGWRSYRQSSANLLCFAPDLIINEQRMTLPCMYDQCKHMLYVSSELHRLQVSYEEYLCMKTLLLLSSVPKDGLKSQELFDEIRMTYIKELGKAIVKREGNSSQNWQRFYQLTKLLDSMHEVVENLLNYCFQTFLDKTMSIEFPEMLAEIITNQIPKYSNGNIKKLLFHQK
- Method summary: GR-GFP Redistribution (AID 450); also: potency is read from the fitted curve at half-maximal effect
- Run parameters: U2OS GR-GFP nuclear translocation, laser cytometry, 2 h
Activity calls are given as the source filed them.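 How the source made its calls: active means compounds whose dose series gives a full or clear partial fitted curve of increased nuclear translocation; inconclusive means weak partial curve or effect only at the top dose; inactive means no dose-dependent translocation response.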
Measurement name: Potency

Compound: Cc1ccc(CN2CCN(Cc3ccc(C)o3)[C@@H](C)C2)o1
Measurement name: Potency
Meas value: > 46 µM (inactive)
//
Compound: Nc1nc(=O)c2[nH]cnc2n1O
Measurement name: Potency
Meas value: > 46 µM (inactive)
//
Compound: N#C/C(=C\Nc1ccccn1)C(=O)c1ccco1
Measurement name: Potency
Meas value: > 46 µM (inactive)
//
Compound: Cc1ccc(SCN2CCCCC2)cc1 (tested in a mixture with another compound)
Measurement name: Potency
Meas value: > 46 µM (inactive)
//
Compound: O=C(O)c1ccc(C(=O)c2ccccc2)c(C(=O)O)c1
Measurement name: Potency
Meas value: > 46 µM (inactive)
//
Compound: CC(C)Cn1cnc2c(SCc3ccc(Cl)cc3Cl)nc(N)nc21
Measurement name: Potency
Meas value: > 46 µM (inactive)
//
Compound: CCCCn1cnc2c(c(CC#N)nn2-c2ccccc2)c1=N
Measurement name: Potency
Meas value: > 46 µM (inactive)
//
Compound: Cc1nnc(S(=O)(=O)c2ccc(N=Nc3c(N)nc(N)nc3N)cc2)s1
Measurement name: Potency
Meas value: > 46 µM (inactive)
//
Compound: Nc1ccc(N=Nc2ccc(-c3ccc(O)cc3)cc2)c2ccc(S(=O)(=O)O)cc12
Measurement name: Potency
Meas value: > 46 µM (inactive)
//
Compound: N=C(N)c1ccc(/C=C\c2ccc(C(=N)N)cc2)cc1
Measurement name: Potency
Meas value: > 46 µM (inactive)
//
Compound: CC(=O)CC(=O)Nc1ccc2ccccc2c1
Measurement name: Potency
Meas value: > 46 µM (inactive)

---

- Method summary: Cell Viability - LYMP2-014 (AID 983);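 also: cells exposed to compound for 24 h at 37 °C; nearly all actives have a fitted effect of over 50% in size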
- Run parameters: LYMP2-014 lymphoblastoid cells, viability qHTS; series mostly up to 92.2 µM
Records with an inconclusive call do not appear. The source made the active and inactive calls. Calls come from the whole dose curve; as a rule, active = well fitted cell-killing curve with a large enough effect; inconclusive = small, poorly fitted or top-dose-only effect; inactive = flat fitted curve, though single readings scatter.
Possible outcomes: y (active), n (inactive)

Compound: O=C1c2ccccc2C(=O)C1(O)O
Class label: n

Compound: CC(=O)OCc1ccc2c(c1)OCO2
Class label: n

Compound: Cc1ccc(C(=O)O)cc1[N+](=O)[O-]
Class label: n

Compound: CCOC(=O)C1OC1c1ccccc1 (stereo unspecified)
Class label: n

Compound: O=C(O)c1ccc([N+](=O)[O-])cc1
Class label: n

Compound: Cc1cc(=O)oc2cc(O)cc(O)c12
Class label: n

Compound: C=Cc1cccc(C)c1
Class label: n

Compound: Nc1ccc(N)c(Cl)c1
Class label: n

Compound: Cc1ccc2ccc3cccc4ccc1c2c34
Class label: n

Compound: C[Si](C)(C)Cl
Class label: n

Compound: O=C(O)/C=C/c1ccc(/C=C/C(=O)O)cc1
Class label: n

Compound: Brc1ccc(-c2ccccc2)cc1
Class label: n

Compound: Brc1cc(Br)c(Oc2cc(Br)c(Br)cc2Br)cc1Br
Class label: n

Compound: CCCCC(CC)COP(=O)(OCC(CC)CCCC)OCC(CC)CCCC (stereo unspecified)
Class label: n

Compound: C=C1CC[C@H](O)C/C1=C/C=C1\CCC[C@]2(C)[C@@H]([C@H](C)CCCC(C)C)CC[C@@H]12
Class label: y

Compound: CC(=O)c1ccc(Cl)c(Cl)c1Cl
Class label: n

Compound: Nc1ccc(N=Nc2ccccc2)c(N)c1
Class label: n

Compound: CC(=O)OC(C(=O)c1ccccc1)c1ccccc1 (stereo unspecified)
Class label: n

Compound: CCCCOC(=O)COc1ccc(Cl)cc1Cl
Class label: n

Compound: Cc1c(N)cccc1Cl
Class label: n

Compound: Cc1c2ccccc2c(C)c2c1ccc1ccccc12
Class label: n

Compound: CC(C)OCC1CO1 (stereo unspecified)
Class label: n

Compound: CC(CCC(=O)O)(c1ccc(O)cc1)c1ccc(O)cc1
Class label: n

Compound: c1ccncc1
Class label: n

Compound: CC(C)S
Class label: n

Compound: c1cc2c3c(c1)ccc1cccc(c13)C2
Class label: n

---

- Method summary: Cell Viability - HepG2 (AID 433);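 also: potency is read from the fitted curve at half-maximal effect; cells exposed to compound for 40 hours; potency for ATP loss meaning cytotoxicity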
- Run parameters: qHTS
Inconclusive results are not listed. The source made the active and inactive calls. Calls follow the shape of the full dose curve.
Classes used: active, inactive

Compound: Cc1ccc(S(N)(=O)=O)cc1
Class label: inactive
--
Compound: Clc1nc2ccccc2nc1Cl
Class label: inactive
--
Compound: C1CCCNCC1
Class label: inactive
--
Compound: CCNC(=S)NCC
Class label: inactive
--
Compound: Cc1ccc(O)c(N)c1
Class label: inactive
--
Compound: Cc1ccc(N)cc1[N+](=O)[O-]
Class label: inactive
--
Compound: CCCCC(CC)COC(=O)COc1ccc(Cl)cc1Cl (stereo unspecified)
Class label: inactive
--
Compound: Cc1c(N)cccc1Cl
Class label: inactive
--
Compound: c1ccncc1
Class label: inactive
--
Compound: C=CC(C)(O)CCCC(C)CCCC(C)CCCC(C)C (stereo unspecified)
Class label: inactive
--
Compound: CC(=O)OC1CC(C)OC(C)O1 (stereo unspecified)
Class label: inactive
--
Compound: O=Nc1ccc(Nc2ccccc2)cc1
Class label: inactive
--
Compound: CC(C)OCC1CO1 (stereo unspecified)
Class label: inactive
--
Compound: CCCCCCc1ccc(-c2ccc(C#N)cc2)cc1
Class label: inactive
--
Compound: C=CC(=O)OCCCCCCOC(=O)C=C
Class label: inactive
--
Compound: Nc1cnn([C@@H]2O[C@H](CO)[C@@H](O)[C@H]2O)c(=O)n1
Class label: inactive
--
Compound: CCCCCCCCC1CO1 (stereo unspecified)
Class label: inactive
--
Compound: CC(=O)OC(C(=O)c1ccccc1)c1ccccc1 (stereo unspecified)
Class label: inactive
--
Compound: CCCCCCCCOc1ccc(C(=O)O)cc1
Class label: inactive
--
Compound: Oc1ccc(O)c2c(O)cccc12
Class label: inactive
--
Compound: N=C1C=CC(=C(c2ccc(N)cc2)c2ccc(N)cc2)C=C1
Class label: active
--
Compound: CCOC(=O)C1OC1c1ccccc1 (stereo unspecified)
Class label: inactive
--
Compound: Nc1cc(C(=O)O)c(O)c(S(=O)(=O)O)c1
Class label: inactive
--
Compound: Nc1cc([N+](=O)[O-])ccc1O
Class label: inactive
--
Compound: Brc1cc(Oc2cc(Br)c(Br)c(Br)c2Br)c(Br)c(Br)c1Br
Class label: inactive
--
Compound: C/C(Cl)=C/CCl
Class label: inactive
--
Compound: CC(CCC(=O)O)(c1ccc(O)cc1)c1ccc(O)cc1
Class label: inactive
--
Compound: Nc1ccc(N=Nc2ccccc2)c(N)c1
Class label: inactive
--
Compound: Brc1ccc(-c2ccccc2)cc1
Class label: inactive
--
Compound: CCCCC(CC)COCCCN (stereo unspecified)
Class label: inactive
--
Compound: c1cc2c3c(c1)ccc1cccc(c13)C2
Class label: inactive

Sourced from PubChem BioAssay (NCATS)
